Record form. Attribute: % of CUG foci free nuclei (DNA-PKi). Fill in for each entry.
# Tested on: CUG foci in primary DM1 patient myoblasts
# assay-name: Single-cut screening: FISH staining of CUG RNA foci
# Assay type: cell-based, human
# condition-context: single sgRNA; primary DM1 patient myoblasts; DNA-PKi treated

INSERT INTO measurements (substance, recorded_value) VALUES
  ('cggcccctccctccccggccGC (guide RNA; as printed in the source, key not given here) [SluU51]', '46.88%'),
  ('CGGCTCCGCCCGCTTCGGCGGT (guide RNA; chemistry not fully specified) [SluD60]', '16.87%'),
  ('gcggccggcgaacggggcTCGA (guide RNA; as printed in the source, key not given here) [SluU60]', '49.06%');

Value sought for every listed substance: % of CUG foci free nuclei (DNA-PKi).
1. ACTTTGCGAACCAACGATAGGT (guide RNA; chemistry not fully specified) [SluD26]
2. CCAGTTCACAACCGCTCCGAGC (guide RNA; chemistry not fully specified) [SluU22]
3. CCATCCACGTCAGGGCCTCAGC (guide RNA; chemistry not fully specified) [SluD08]

Data returned:
1. 32.32%
2. 50.21%
3. 48.28%

Data request: Consider the substance GCCCGGATCACAGGACTGGAGC (guide RNA; chemistry not fully specified) [SluU30] and give its recorded % of CUG foci free nuclei (DNA-PKi).
Data returned: 46.16%

----------
# Tested on: CUG foci in primary DM1 patient myoblasts
# assay-name: Dual-cut screening: FISH staining of CUG RNA foci
# Type: cell-based, human
# condition-context: sgRNA pair; primary DM1 patient myoblasts; vehicle (DMSO)
Give measured % of CUG foci free nuclei (Vehicle) for each item. Keep answers brief.
Give bare numbers, in %.

Answered cases to consult:
INSERT INTO measurements (substance, measurement_target, recorded_value) VALUES
  ('SluU63 + SluD14 (guide 1 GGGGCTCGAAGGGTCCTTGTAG; guide 2 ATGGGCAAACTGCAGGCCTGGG; guide RNA; listed as DNA, chemistry not fully specified)', 'CUG foci in primary DM1 patient myoblasts', 67.35),
  ('SluU21 + SluD83 (guide 1 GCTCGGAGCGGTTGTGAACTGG; guide 2 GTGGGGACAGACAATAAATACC; guide RNA; listed as DNA, chemistry not fully specified)', 'CUG foci in primary DM1 patient myoblasts', 51.65),
  ('SluU21 + SluD06 (guide 1 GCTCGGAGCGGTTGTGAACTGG; guide 2 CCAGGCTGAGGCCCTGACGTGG; guide RNA; listed as DNA, chemistry not fully specified)', 'CUG foci in primary DM1 patient myoblasts', 48.27),
  ('SluU21 + SluD68 (guide 1 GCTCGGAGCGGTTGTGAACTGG; guide 2 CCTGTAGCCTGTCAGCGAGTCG; guide RNA; listed as DNA, chemistry not fully specified)', 'CUG foci in primary DM1 patient myoblasts', 51.5),
  ('SluU06 + SluD48 (guide 1 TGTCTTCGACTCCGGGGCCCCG; guide 2 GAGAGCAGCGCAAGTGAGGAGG; guide RNA; listed as DNA, chemistry not fully specified)', 'CUG foci in primary DM1 patient myoblasts', 66.88),
  ('SluU64 + SluD14 (guide 1 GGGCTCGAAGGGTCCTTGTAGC; guide 2 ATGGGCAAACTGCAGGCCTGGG; guide RNA; listed as DNA, chemistry not fully specified)', 'CUG foci in primary DM1 patient myoblasts', 67.06);

// for each substance in input: emit % of CUG foci free nuclei (Vehicle)
1. SluU63 + SluD73 (guide 1 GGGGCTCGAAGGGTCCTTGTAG; guide 2 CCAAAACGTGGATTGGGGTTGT; guide RNA; listed as DNA, chemistry not fully specified)
2. SluU62 + SluD100 (guide 1 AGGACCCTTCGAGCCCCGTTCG; guide 2 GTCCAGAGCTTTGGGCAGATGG; guide RNA; listed as DNA, chemistry not fully specified)

Data returned:
1: 70.03; 2: 53.45

Provide the reported % of CUG foci free nuclei (Vehicle) of each entry below, same order.
1. SluU63 + SluD48 (guide 1 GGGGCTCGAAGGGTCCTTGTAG; guide 2 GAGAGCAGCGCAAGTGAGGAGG; guide RNA; listed as DNA, chemistry not fully specified)
2. SluU62 + SluD68 (guide 1 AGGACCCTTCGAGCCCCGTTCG; guide 2 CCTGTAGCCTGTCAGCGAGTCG; guide RNA; listed as DNA, chemistry not fully specified)

Data returned:
[73.73, 49.06]
